Each entry below lists one item and its recorded kon value.
- system name: shADAM9-His (His-tagged soluble human ADAM9) (human) (UniProt Q13443)
- assay method text: BIACORE SPR; antibody captured, huADAM9-His as analyte
Answer by giving the amount and then stating its unit.

binder | result
hMAB-A (2.2) (antibody, V domains shown) VH: EVQLVESGGGLVKPGGSLRLSCAASGFTFSSYWMHWVRQAPGKGLEWVGEIIPIFGHTNYNEKFKSRFTISLDNSKNTLYLQMGSLRAEDTAVYYCARGGYYYYGSRDYFDYWGQGTTVTVSS VL: DIVMTQSPDSLAVSLGERATISCKASQSVDYSGDSYMNWYQQKPGQPPKLLIYAASDLESGIPARFSGSGSGTDFTLTISSLEPEDFATYYCQQSHEDPFTFGQGTKLEIK | 900000 M⁻¹ s⁻¹
hMAB-A (2D.2) (antibody, V domains shown) VH: EVQLVESGGGLVKPGGSLRLSCAASGFTFSSYWMHWVRQAPGKGLEWVGEIIPIFGHTNYNEKFKSRFTISLDNSKNTLYLQMGSLRAEDTAVYYCARGGYYYYTGKGVLDYWGQGTTVTVSS VL: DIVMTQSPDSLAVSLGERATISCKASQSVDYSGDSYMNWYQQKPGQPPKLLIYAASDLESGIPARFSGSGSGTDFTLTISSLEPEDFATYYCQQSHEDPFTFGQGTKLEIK | 690000 M⁻¹ s⁻¹
hMAB-A (2I.2) (antibody, V domains shown) VH: EVQLVESGGGLVKPGGSLRLSCAASGFTFSSYWMHWVRQAPGKGLEWVGEIIPIFGHTNYNEKFKSRFTISLDNSKNTLYLQMGSLRAEDTAVYYCARGGYYYYPRQGFLDYWGQGTTVTVSS VL: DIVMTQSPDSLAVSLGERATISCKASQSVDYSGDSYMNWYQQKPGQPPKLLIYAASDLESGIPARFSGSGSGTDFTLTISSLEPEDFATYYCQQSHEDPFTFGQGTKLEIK | 660000 M⁻¹ s⁻¹

Give the measured kon for hMAB-A (2C.2) (antibody, V domains shown) VH: EVQLVESGGGLVKPGGSLRLSCAASGFTFSSYWMHWVRQAPGKGLEWVGEIIPIFGHTNYNEKFKSRFTISLDNSKNTLYLQMGSLRAEDTAVYYCARGGYYYYPRFGWLDYWGQGTTVTVSS VL: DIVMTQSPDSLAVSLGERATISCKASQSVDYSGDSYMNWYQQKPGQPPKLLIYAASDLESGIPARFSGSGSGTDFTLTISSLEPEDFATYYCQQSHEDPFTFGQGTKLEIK
590000 M⁻¹ s⁻¹
